# System: PC-3
# Test: NCI tumour cell line growth inhibition, 48 h
Calls of active or inactive are those of the source. Cut-off read from the data, not from the text of the source: active = GI50 up to about 1.1 µM and inactive = higher.
Would you mind answering with one of these outcomes? 1 for active, -1 for inactive

Request: What is the recorded call for this compound in the test? `CC[C@H]1C=CCC[C@@]2(C[C@@H]3CC[C@H]4[C@@H](C(=O)OCCCCCCCCCCCCCCCC(=O)N(CCCNC(C)=O)C[C@H](CCNC(C)=O)OC(C)=O)[C@@]5(CCC[C@@H](C)O5)NC(=[N+]34)N2)O1`
Result: 1

Request: Quick one: `CC(=O)N(CC(=O)C(=O)NNc1ccoc1)c1ccc(Cl)cc1`
Result: -1

Request: # iterate: `COc1cc(NS(C)(=O)=O)ccc1Nc1cc(C)nc2ccc3[nH]ccc3c12`
Result: -1

Request: What do you have for `O=C(CSCC(=O)N/N=C/c1cccc(C(F)(F)F)c1)N/N=C/c1cccc(C(F)(F)F)c1` ?
Result: -1

Request: What would you report for CC(C)(C)[Si](C)(C)OCC1OC(n2cc(I)c(N)nc2=O)C(O[Si](C)(C)C(C)(C)C)C1O[Si](C)(C)C(C)(C)C (stereo not drawn) ?
Result: -1

Request: Same again, this time with `COC(=O)c1nc2n(n1)-c1ccccc1C(=O)N(Cc1ccccc1)C2`
Result: -1

Request: Try this compound too: `COc1ccc(Nc2n[nH]c(NS(=O)(=O)c3cc(C)c(Cl)cc3S)n2)cc1`
Result: -1

Request: Queued: `CN(CCNC(=O)c1c[nH]c2c1ccc1ccccc12)CCNC(=O)c1c[nH]c2c1ccc1ccccc12`
Result: -1
